Please respond with reported Ki for every item in the list.
Biological target: mutated (E4Q, A5T) hMCHR1 receptor (Homo sapiens, UniProt Q99705, A5T/E4Q)
Sequence (Q99705 whole entry E4Q/A5T): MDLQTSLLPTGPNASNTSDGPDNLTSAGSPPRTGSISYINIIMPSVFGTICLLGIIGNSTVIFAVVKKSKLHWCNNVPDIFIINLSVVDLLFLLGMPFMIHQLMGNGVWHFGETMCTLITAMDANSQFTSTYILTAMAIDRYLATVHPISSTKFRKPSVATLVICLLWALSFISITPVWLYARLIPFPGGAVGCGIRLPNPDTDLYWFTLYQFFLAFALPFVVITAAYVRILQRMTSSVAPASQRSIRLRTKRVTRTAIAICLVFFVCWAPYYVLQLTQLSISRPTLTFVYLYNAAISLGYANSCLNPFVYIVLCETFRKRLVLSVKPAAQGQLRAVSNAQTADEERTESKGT
Experiment: Radioligand binding assay for assessment of MCHR1 activity
Settings: membranes from stably transfected HEK-293 cells; competition with [Phe13,[125I]Tyr19]-MCH
Structures can show the parent of a compound that is named as a salt.
Answers are plain numbers, in nM.

Use the examples below as a reference point.
CN(C)[C@@H]1CCN(c2ccc(N3Cc4cc(-c5ccc(Cl)cc5)sc4C3=O)cn2)C1 | 0.2
COc1cc(N2Cc3cc(-c4ccc(Cl)cc4)oc3C2=O)ccc1OCC(C)(C)O | 13.3
COc1cc(N2Cc3cc(-c4ccccn4)sc3C2=O)ccc1OCC(C)(C)O [Example 49, trifluoroacetic acid salt] | 107

Prompt line: Which Ki reading was recorded for the molecule `COc1cc(N2Cc3cc(-c4ccc(Cl)cc4)sc3C2=O)ccc1OCCN1CCCC1` ?
Response line: 0.2

---

Biological target: mutated (E4Q, A5T) hMCHR1 receptor (Homo sapiens, UniProt Q99705, A5T/E4Q)
Assay: Radioligand binding assay for assessment of MCHR1 activity
Conditions: membranes from stably transfected HEK-293 cells; competition with [Phe13,[125I]Tyr19]-MCH
Mark each entry Condition met if its Ki sits below 0.02 µM, and Condition not met for all others.

Some entries whose results are on file:
COc1cc(N2Cc3cc(-c4ccc(Cl)nc4)sc3C2=O)ccc1OCC(C)(C)O | Condition not met
COc1cc(N2Cc3nc(-c4ccc(Cl)cc4)sc3C2=O)ccc1OCC(C)(C)O | Condition not met
COc1cc(N2Cc3cc(-c4ncc(Cl)cn4)sc3C2=O)ccc1OCC(C)(C)OC(=O)CN | Condition met
COc1cc(N2Cc3cc(-c4ccc(Cl)cn4)sc3C2=O)ccc1OCC(O)C(F)(F)F (centres unmarked) | Condition met

Prompt line: Bench note: check whether `COc1cc(N2Cc3cc(-c4ccc(Cl)cc4)sc3C2=O)ccc1OCC(C)(C)O` shows Ki below 0.02 µM
Response line: Condition met

Prompt line: Bench note: check whether `CN[C@H]1CCN(c2ccc(N3Cc4cc(-c5ccc(Cl)cc5)sc4C3=O)cn2)C1` shows Ki below 0.02 µM
Response line: Condition met

Prompt line: Bench note: check whether `COc1cc(N2Cc3cc(-c4ccc(Cl)cc4)sc3C2=O)ccc1O` shows Ki below 0.02 µM
Response line: Condition not met

Prompt line: Bench note: check whether `COc1cc(N2Cc3cc(-c4ncc(Cl)cn4)sc3C2=O)ccc1OCC(C)(C)O` shows Ki below 0.02 µM
Response line: Condition met

---

Biological target: mutated (E4Q, A5T) hMCHR1 receptor (Homo sapiens, UniProt Q99705, A5T/E4Q)
Experiment: Radioligand binding assay for assessment of MCHR1 activity
Conditions: membranes from stably transfected HEK-293 cells; competition with [Phe13,[125I]Tyr19]-MCH
Please respond with reported Ki for every item in the list.
Reply with the number, then its unit.

COc1cc(N2Cc3nc(-c4ccc(Cl)cc4)oc3C2=O)ccc1OCC(C)(C)O [Example 53] | 0.248 µM
COc1cc(N2Cc3cc(-c4ncc(Cl)cn4)sc3C2=O)ccc1N1CCC(O)CC1 [Example 39] | 0.0336 µM
COc1cc(N2Cc3cc(-c4ccc(Cl)cc4)sc3C2=O)ccc1OC[C@H](O)CS(C)(=O)=O [Example 15] | 0.0006 µM
COc1cc(N2Cc3cc(-c4ccncc4)sc3C2=O)ccc1OCC(C)(C)O [Example 43] | 1.29 µM

Prompt line: Which Ki reading was recorded for the compound COc1cc(N2Cc3cc(-c4ccc(Cl)cc4)sc3C2=O)ccc1OC[C@H](O)C1CC1 [Example 2] ?
Response line: 0.0025 µM

Source listed as patent US8344160B2.
